ASSAYED SYSTEM: T1, human calcitonin receptor (human, UniProt P30988 25-474)
T1 construct: whole, on cells; membranes of stably transfected BHK cells (Assay VII); also called hCTR; hCT
T1 sequence (looked up): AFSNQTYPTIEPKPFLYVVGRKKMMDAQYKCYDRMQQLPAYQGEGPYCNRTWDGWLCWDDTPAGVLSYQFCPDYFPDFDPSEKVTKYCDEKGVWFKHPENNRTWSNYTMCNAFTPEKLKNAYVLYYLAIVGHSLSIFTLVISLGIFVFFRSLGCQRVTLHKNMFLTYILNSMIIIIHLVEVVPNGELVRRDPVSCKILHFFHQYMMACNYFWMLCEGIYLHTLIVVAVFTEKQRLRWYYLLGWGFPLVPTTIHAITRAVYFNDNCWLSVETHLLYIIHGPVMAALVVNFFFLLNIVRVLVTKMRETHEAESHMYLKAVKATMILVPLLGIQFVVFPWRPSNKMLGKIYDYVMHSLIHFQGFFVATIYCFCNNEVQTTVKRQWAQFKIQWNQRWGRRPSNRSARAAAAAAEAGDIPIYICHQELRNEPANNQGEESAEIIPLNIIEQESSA
ASSAY COMMENT: IC50 on human calcitonin receptor divided by IC50 on human amylin receptor (SPA competition)
Numbered stars: 1 amine (or outer) side, 2 acyl side, 3 side chain; on linkers, the order of the positions; unused ones are H or OH. Bridge positions count the residues as written; N and C are the ends. Side chains are listed from the residue outwards. Ends that are not written are not given here. * marks the point of attachment. C20 diacid = O=C(O)CCCCCCCCCCCCCCCCCCC(=O)*; γGlu = O=C(O)[C@H](CCC(=O)[*:2])N[*:1]; AEEA = NCCOCCOCC(=O)O
QUANTITY: Ratio hCT/hAmylin binding
Note: the reply should be a number with no unit written.

Example entries begin here.
BINDER	RECORDED VALUE
{C20 diacid-γGlu}-KCNTATCATQRLAHFLRHSSPNFGAIPSSTNVGSETY-NH2 (disulfide 2-7 (inferred), analogue of human amylin; also called compound 30)	23.6
K([AEEA-γGlu-C20 diacid])CNTATCATQRLANFLRHSSPNFGAIPSSTPVGSNTY-NH2 (disulfide 2-7 (inferred), analogue of human amylin; also called compound 49)	10.8
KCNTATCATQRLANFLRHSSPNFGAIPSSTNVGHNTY (C20 diacid-gGlu on the alpha amino group of the N-terminal residue (Lys 1); disulfide bridge between the two Cys residues; C-terminal amide, analogue of human amylin; also called compound 40) [N^α1-[(4S)-4-carboxy-4-(19-carboxynonadecanoylamino)butanoyl]-[Arg17,Pro21,Pro27,His34]-h-amylin]	31.1

Query :: Please look up its Ratio hCT/hAmylin binding: K([AEEA-γGlu-C20 diacid])RCNTATCATQRLANFLRHSSPNFGAIPSSTNVGSHTY-NH2 (disulfide 3-8 (inferred), analogue of human amylin extended by Lys at the N-terminus; also called compound 45)
Result :: 26.8

Query :: Please look up its Ratio hCT/hAmylin binding: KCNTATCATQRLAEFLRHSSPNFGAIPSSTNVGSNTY (C20 diacid-gGlu-2xOEG on the alpha amino group of the N-terminal residue (Lys 1); disulfide bridge between the two Cys residues; C-terminal amide, analogue of human amylin; also called compound 19)
Result :: 36.7
